Test system: CCRF-CEM leukemia
protocol.text: NCI-60 one-dose screen, 48 h (100 = growth as untreated, 0 = no growth, -100 = all killed)
stated.conditions: 10 µM unless noted
About 83,000 compounds went through this panel and 20% of them were active in at least one assay; those are over-represented in the sample as a whole.
Can you tell me growth for the items I'm about to list?
Numbers only, in %.

Examples from the recorded data:
>>> val("C=C(C)[C@@H]1CCC=C2CC[C@]3(C)[C@H](CC[C@@H]4[C@@]5(C)CCCNC(C)(C)[C@@H]5CC[C@]43C)[C@H]21")
40.1
>>> val("Cc1cnc(SCc2ccc(Cl)cc2)[nH]c1=S")
106
>>> val("Oc1ccc(CNNc2ccnc3c(O)cccc23)c2cccnc12")
18.7
>>> val("COc1ccc2nc(-c3ccc(Cl)cc3)cc(C(=O)N3N=C(c4ccc(N)cc4)CC3c3ccccc3)c2c1 (centres undefined)")
31.2
>>> val("CC(C)Cc1cc(CNC(=O)C2[C@H]3CN(C(=O)c4ccccc4)C[C@@H]23)nn1-c1ccccc1 (some centres undefined)")
89.7
>>> val("C#CCN1C(=O)c2ccccc2N(CC#C)C12CCN(Cc1cn(CC(=O)Nc3ccccc3C(N)=O)nn1)CC2")
84.3
>>> val("CCOC(=O)C1=C(C)n2nc(CC#N)c(C#N)c2NC1c1ccc(CC)cc1 (centres undefined)")
101
>>> val("O=C1CC23OC4ON=C(Br)C4C2C(O)c2ccccc2N13 (centres undefined)")
111

Now for the compound whose growth we want.
Qu. Entry under review: CCCCCCC/C=C/[C@H]1O[C@]23C(=O)C[C@@]4(C[C@@H](OC5OC(CO)C(O)C(O)C5O)C[C@@H]4[C@H]2C=C1C)OC3=O (some centres undefined) . Reported growth?
Ans. 19

====

System: SK-MEL-28 melanoma
protocol.text: NCI-60 one-dose screen, 48 h (100 = growth as untreated, 0 = no growth, -100 = all killed)
stated.conditions: 10 µM unless noted
About 83,000 compounds went through this panel and 20% of them were active in at least one assay; those are over-represented in the sample as a whole.
property.name: growth (%)
One number for each entry, in %.

Known results for compounds:
>>> val("O=C(NC[C@H](O)CN1CCc2ccccc2C1)c1cc(NC2COC2)ncn1")
88.3
>>> val("COc1ccc(C(C)c2cc(OC)c(OC)c(OC)c2)cc1 (stereo not given)")
61.1
>>> val("COc1cc(C2=NNC(c3ccc(N(C)C)cc3)C2)cc(OC)c1OC (stereo not given)")
79.4
>>> val("COc1ccc(-c2nc(C#N)c(NCC(c3ccc(Cl)cc3)N3CCCCC3)o2)cc1 (stereo not given)")
94.3

Now for the compound whose growth we want.
Qu. Find the recorded growth belonging to `COc1cc(NCC(=O)Nc2cc(Nc3cccc(C(F)(F)F)c3)ncn2)c(Cl)c(OC)c1Cl` and report it.
Ans. 105

====

System: HS 578T breast
protocol.text: NCI-60 one-dose screen, 48 h
stated.conditions: 10 µM unless noted
Compounds without any hit were thinned out: in the full panel of roughly 83,000, 20% have a hit. Active and inactive are the calls of the source. The calls were made as follows: active = growth percent below 10; inactive = the rest.
Give your call using only these classes: active, inactive

As a guide, the following entries are already answered.
>>> assigned_class("C=C(C)[C@@H]1CC[C@]2(C(=O)NCCCO)CC[C@]3(C)[C@H](CC[C@@H]4[C@@]5(C)CCCNC(C)(C)[C@@H]5CC[C@]43C)[C@@H]12")
"inactive"
>>> assigned_class("O=C(CN1N=C(c2ccc(F)cc2)CCC1=O)Nc1nccs1")
"inactive"
>>> assigned_class("O=C1C(=O)c2c(nc3ccc(Br)cn23)-c2ccccc21")
"active"

Qu. Tell me the recorded outcome of this test for COc1ccc2c(c1)Oc1nc(N)c(C#N)c(N)c1C2Sc1ccc(O)cc1 (configuration not stated) .
Ans. inactive

Qu. // outcome(item) with item = `O=C(O)c1cn(C2CC2)c2cc(N3CCN(C(=O)CSc4nnc(-c5ccc(Cl)cc5)n4-c4ccccc4)CC3)c(F)cc2c1=O`
Ans. inactive

Qu. State the result this test recorded for `CC(C)CSc1nc(Nc2ccccc2)c(C#N)c(-c2ccc(F)cc2)n1` .
Ans. inactive

====

System: MCF7 breast
protocol.text: NCI-60 one-dose screen, 48 h
stated.conditions: 10 µM unless noted
Description: Growth inhibition of the MCF7 human tumor cell line is measured as a screen for anti-cancer activity. Cells are grown in 96 well plates and exposed to the test compound for 48 hours. Compounds are tested at a single concentration, which is 10^-5 M for most compounds. The reported endpoint is percent growth (GI% or GIPRCNT), where numbers from 0 - 100% represent growth inhibition, and numbers from -100% - 0 represent cell death. For example, a value of 40 represents 60% growth inhibition. […]
The panel holds about 83,000 compounds, 20% with a hit somewhere; the sample as a whole holds those more often. Active and inactive are the calls of the source. The calls were made as follows: active = growth percent below 10; inactive = the rest.
Returns: one label drawn from True (active), False (inactive)

Recorded results for 8 compounds are shown here.
>>> assigned_class("COC(=O)/C=C/c1cc(OC)c2c(c1)[C@@H](C(=O)OC)[C@H](c1ccc(OC)c(OC)c1)O2")
"False"
>>> assigned_class("CCN1CCC[C@H]1c1cc(O)c2c(c1OC)C[C@H]1C[C@H]3[C@H](N)C(=O)C(C(N)=O)=C(O)[C@@]3(O)C(=O)C1=C2O")
"True"
>>> assigned_class("COc1c(O)cc2oc3cc(O[C@@H]4OC(C)[C@@H](O)[C@H](O)C4O)c(CC=C(C)C)c(O)c3c(=O)c2c1CC=C(C)C (stereo partly drawn)")
"False"
>>> assigned_class("CN1CCN(S(=O)(=O)O[C@@H]2C(=O)N(c3cc4c5ccccc5ccc4c4ccccc34)[C@H]2c2ccc(F)cn2)CC1")
"False"
>>> assigned_class("O=C1CC(c2ccc(O)c(O)c2)Oc2cc(O)c([C@@H]3O[C@H](CO)[C@@H](O)[C@H](O)[C@H]3O)c(O)c21 (stereo partly drawn)")
"False"
>>> assigned_class("Cc1c(Cl)cccc1NC(=O)c1sc2nc3c(cc2c1N)CN(Cc1ccccc1)CC3")
"False"
>>> assigned_class("O=C(O)c1ccc(-n2cc(/C=N/Nc3ccc(Cl)cc3Cl)c(-c3ccccc3)n2)cc1")
"False"
>>> assigned_class("COc1ccc(Cl)c([N+](=O)[O-])c1")
"False"

Qu. Would you mind telling me which call this test gave `COc1cc(-c2csc(NC(=O)Nc3ccc(C(F)(F)F)cc3)n2)cc(OC)c1OC` ?
Ans. True

Qu. Write down the call the test reported for this compound. Item: `CC(C)(C#N)c1cc(F)cc(C(=O)Nc2cc(Nc3ncccc3-c3ncnc4nc[nH]c34)ccc2F)c1`
Ans. False

Qu. Could you kindly confirm the outcome this assay logged for `COc1cc(NCC(=O)Nc2cc(Nc3ccc(C)cc3)ncn2)c(Cl)c(OC)c1Cl` ?
Ans. False

Qu. Hey, what did the test say about `COc1cc(/C=C/C(=O)/C=C/c2cc3ccc(Cl)cc3n(Cc3ccccc3)c2=O)ccc1O` ?
Ans. False

Qu. Short answer needed: outcome of this test for CCCS(=O)(=O)Nc1ccc(F)c(C(=O)c2c[nH]c3ncc(-c4ccc(OCCCC5CCCCN5)nc4)cc23)c1F (stereo not drawn) ?
Ans. False

Qu. Dear all, I need the recorded test outcome for COc1cc(C2=NN(C(C)=O)C(c3cccc(Nc4ccnc5cc(C(F)(F)F)ccc45)c3)C2)cc(OC)c1OC (stereo not drawn) , thank you.
Ans. False

Qu. Answer briefly: the call reported for `NCCN1CCNCC1` in this assay.
Ans. False

Qu. // outcome(item) with item = `N#Cc1c(-c2ccc(F)cc2)c(C#N)c2c(C#N)c(N)nn2c1N`
Ans. False

Qu. State the result this test recorded for `O=C(Nc1nc(-c2ccccc2)cs1)c1cc(-c2ccc(Br)cc2)nc2ccccc12` .
Ans. False

Qu. What outcome does the record of this test show for `COc1cc(-c2csc(NC(=O)Nc3ccc(Cl)cc3)n2)cc(OC)c1OC` ?
Ans. True

====

Tested on: OVCAR-5 ovarian
protocol.text: NCI-60 one-dose screen, 48 h (100 = growth as untreated, 0 = no growth, -100 = all killed)
stated.conditions: 10 µM unless noted
Compounds without any hit were thinned out: in the full panel of roughly 83,000, 20% have a hit.
Rule: measured growth below 90% gets Yes; anything equal to or greater than 90% gets No.

Example results:
>>> assigned_class("C#C[C@@]1(O)[C@@H](CO)O[C@@H](n2cc(Cl)c3c(N)ccnc32)[C@@H]1O")
"No"
>>> assigned_class("N#Cc1ccc(Oc2ccc3ccc(=O)oc3c2)cc1")
"No"
>>> assigned_class("C=C1C(=O)O[C@H]2[C@H]1CC/C(COC(=O)n1ccnc1)=C\\CC[C@@]1(C)O[C@@H]21")
"No"
>>> assigned_class("CC[C@]12C=CCN3CC[C@@]4(c5ccc(OC)cc5N(C)[C@H]4[C@@](O)(C(=O)OC)[C@@H]1OC(=O)CCC(=O)O[C@H]1CC[C@H]4[C@@H]5CC[C@H]6CC(=O)CC[C@]6(C)[C@H]5CC[C@]14C)[C@@H]32")
"Yes"
>>> assigned_class("COc1cc(NCC(=O)Nc2cc(Nc3cccc(C(F)(F)F)c3)ncn2)c(Cl)c(OC)c1Cl")
"No"

Qu. Quick check: growth of `C#C[C@@]1(O)[C@@H](CO)O[C@@H](n2cc(F)c3c(N)ncnc32)[C@@H]1O` under 90%?
Ans. Yes

Qu. Confirm or reject: growth of `COc1ccc(-c2cc(-c3nnc(SCC(=O)Nc4ccc(C(C)=O)cc4)o3)c3ccccc3n2)cc1` lies strictly below 90%
Ans. Yes

Qu. Say whether its growth is strictly beneath 90%. Entry: `COc1cccc(NC(=O)Nc2ccc(Oc3ncnc4[nH]c(C)c(C)c34)cc2)c1`
Ans. No

Qu. For this molecule, is growth lower than 90%? `C=C(C)[C@@H]1CC[C@]2(C(=O)O)CC[C@]3(C)[C@H](CC[C@@H]4[C@@]5(C)C[C@@H](CC#Cc6ccccc6C)C(=O)C(C)(C)[C@@H]5CC[C@]43C)[C@@H]12`
Ans. Yes

Qu. Here's an entry: CCN(CC)c1ccc2c(c1)Oc1nc(N)c(C#N)c(N)c1C2Sc1ccc(OC)cc1 (stereo not drawn) . Is its growth below 90%?
Ans. Yes
